The measured values listed here are drawn from patent US4579947A.

Quick list: pIC50 per entry.
Tested on: rat peritoneal mast cells
Assay: Inhibition of rat peritoneal mast cell histamine release
Type: cell-based
Conditions: Mast cell, 1 h; Table B; in vitro, sheep anti-rat IgE or ovalbumin, 60 minutes at 37° C.; Int. = interference with test procedure; read-out: Inhibition IC50 (histamine release from rat peritoneal mast cells)
pIC50: −log10 of the molar value. Counter-ions that a name gives are not always drawn.

[
  {
    "molecule": "O=C(NCCCN1CCN(Cc2ccc(Cl)cc2)CC1)NC1CCCCC1 [Example 1, dihydrochloride]",
    "resultOperator": "=",
    "pIC50": 3.97
  },
  {
    "molecule": "N#Cc1ccc(NC(=O)NCCCN2CCN(Cc3ccc(Cl)cc3)CC2)cc1 [Example 24, dihydrochloride monohydrate]",
    "resultOperator": "=",
    "pIC50": 3.82
  },
  {
    "molecule": "CCCCCCNC(=O)NCCCN1CCN(Cc2ccc(Cl)cc2)CC1 [Example 4, dihydrochloride]",
    "resultOperator": "=",
    "pIC50": 3.96
  },
  {
    "molecule": "CCCCCCCCNC(=O)NCCCN1CCN(Cc2ccc(Cl)cc2)CC1",
    "resultOperator": "=",
    "pIC50": 3.68
  },
  {
    "molecule": "O=C(NCCCN1CCN(Cc2ccc(Cl)cc2)CC1)Nc1ccccc1",
    "resultOperator": "<",
    "pIC50": 3.00
  }
]
